- protocol_summary: Protein binding to human serum
- Type: in vitro ADME
- assay_setup: at ca. 1,2 mg Jod/ml, meglumine salts, read-out: Proteinbindung an Humanserum (converted)
Form field: fraction unbound (one value per entry).
API doc: respond with a numeric literal and nothing else, no unit.

[
  {
    "compound": "O=C(CCCCC(=O)Nc1c(I)cc(I)c(C(=O)O)c1I)Nc1c(I)cc(I)c(C(=O)O)c1I [B, Iodipamid]",
    "measured_number": 0.23
  }
]

Could you now consider this next compound?
Form field fraction unbound, entry CNC(=O)c1c(I)c(NC(=O)CCCCC(=O)Nc2c(I)cc(I)c(C(=O)O)c2I)c(I)c(C(=O)O)c1I [Verbindung A] : 0.57

----------
- protocol_summary: in vivo
- Design: species or system Ratte
- assay_setup: rat, iv, 60 mg/kg
endpoint: dose excreted at 3 h
Could you write the number and then its unit?

[
  {
    "smiles_input": "CNC(=O)c1c(I)c(NC(=O)CCCCC(=O)Nc2c(I)cc(I)c(C(=O)O)c2I)c(I)c(C(=O)O)c1I",
    "dose excreted at 3 h": "85.9%"
  }
]

Here is another molecule to look at.
Looking up `O=C(CCCCC(=O)Nc1c(I)cc(I)c(C(=O)O)c1I)Nc1c(I)cc(I)c(C(=O)O)c1I` , I found its dose excreted at 3 h recorded as 91.5%

----------
- protocol_summary: in vivo
- assay_setup: dog, iv
endpoint: Tmax (h)
Report only the number, with the unit h understood.

Kindly note the recorded Tmax for `CNC(=O)c1c(I)c(NC(=O)COCC(=O)N(C)c2c(I)cc(I)c(C(=O)O)c2I)c(I)c(C(=O)O)c1I` , which is 1.5
